# Experimental details: physchem
# Type: physicochemical
# Settings: aqueous buffer, thermodynamic from solid
Observed property: solubility

Data request, read-out solubility, for O=C(CC1NCCCC1O)Cn1cnc2cc(Br)c(Cl)cc2c1=O (stereo not shown)
≥ 5000 µg/mL
